Molecular target: T1, human interleukin 12 (human, UniProt P29459 23-219; P29460 23-328)
T1 construct: heterodimer of p35 and p40 linked by a disulfide bridge; also called hIL-12; IL-12
T1 sequence (looked up) 1: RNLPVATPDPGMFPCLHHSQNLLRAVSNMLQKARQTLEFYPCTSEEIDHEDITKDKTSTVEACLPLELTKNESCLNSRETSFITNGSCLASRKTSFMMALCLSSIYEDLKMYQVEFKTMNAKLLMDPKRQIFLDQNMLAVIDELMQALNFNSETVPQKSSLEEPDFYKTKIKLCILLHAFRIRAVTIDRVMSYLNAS
T1 sequence (looked up) 2: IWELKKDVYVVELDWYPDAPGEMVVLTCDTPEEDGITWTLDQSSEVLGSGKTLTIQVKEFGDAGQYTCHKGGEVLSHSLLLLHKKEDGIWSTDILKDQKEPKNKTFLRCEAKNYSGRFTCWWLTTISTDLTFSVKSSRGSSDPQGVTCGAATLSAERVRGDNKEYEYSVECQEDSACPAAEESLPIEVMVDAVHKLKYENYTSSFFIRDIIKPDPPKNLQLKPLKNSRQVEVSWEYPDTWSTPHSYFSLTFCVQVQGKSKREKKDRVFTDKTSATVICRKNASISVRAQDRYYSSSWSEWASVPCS
Test: SPR (BIAcore)
Task for the reader: assign each of the following binders its reported koff.

Before answering, review these 2 worked examples.
73-C6 (antibody, V domains shown) VH: QVQLVQSGGGVVQPGRSLRLSCAASGFTFSSYGMHWVRQAPGKGLEWVAFIRYDGSNKYYADSVKGRFTISRDNSKNTLYLQMKSLRAEDTAVYYCTTSGSYDYWGQGTMVTVSS VL: SYVLTQPPSVSGTPGQRVTISCSGGRSNIGSNTVKWYQQLPGTAPKLLIYGNDQRPSGVPDRFSGSKSGTSASLAITGVQAEDEADYYCQSYDTGFTGSRVFGTGTKVTVLG: 0.00396 s⁻¹
73-B2 (antibody, V domains shown) VH: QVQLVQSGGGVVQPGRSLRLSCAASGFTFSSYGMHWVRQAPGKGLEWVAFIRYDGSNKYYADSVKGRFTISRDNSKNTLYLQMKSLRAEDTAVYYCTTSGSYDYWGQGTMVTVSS VL: SYVLTQPPSVSGTPGQRVTISCSGGRSNIGSNTVKWYQQLPGTAPKLLIYGNDQRPSGVPDRFSGSKSGTSASLAITGVQAEDEADYYCHSSESGFTGSRVFGTGTKVTVLG: 0.00207 s⁻¹

Consider the binder shown here: 136-17 (antibody, V domains shown) VH: QVQLVQSGGGVVQPGRSLRLSCAASGFTFSSYGMHWVRQAPGKGLEWVAFIRYDGSNKYYADSVKGRFTISRDNSKNTLYLQMKSLRAEDTAVYYCTTHGSHDNWGQGTMVTVSS VL: SYVLTQPPSVSGTPGQRVTISCSGGRSNIGSNTVKWYQQLPGTAPKLLIYGNDQRPSGVPDRFSGSKSGTSASLAITGVQAEDEADYYCQSYDWNFTGSRVFGTGTKVTVL What is its recorded koff?
2.9e-05 s⁻¹
